# Test description: qHTS assay to identify small molecule agonists of the hypoxia (HIF-1) signaling pathway (AID 1224846); also: % is scaled to controls: 0 for no effect and ±100 for the full control effect
# Experimental setup: HRE-bla ME-180 cells, beta-lactamase ratio, 17 h; series mostly up to 76.8 µM
# Experimental: U.S. Tox21 Program National Center for Advancing Translational Sciences [NCATS] NIH Chemical Genomics Center [NCGC] U.S. Environmental Protection Agency [EPA] National Institutes of Environmental Health Sciences [NIEHS] National Toxicology Program [NTP] U.S. Food and Drug Administration [FDA] […] Tox21 10K library compounds were measured for their ability to induce the reporter gene activity. […]
Records with an inconclusive call do not appear. The source made the active and inactive calls. Calls follow the shape of the dose curve; as a rule, active = well fitted activation curve with a large enough effect in the signal ratio in the repeat runs (not every such curve was filed as active); inconclusive = weak or mixed curves; inactive = flat fitted curve, though single readings scatter; the % refers to the signal ratio.
Property name: activation

1) O=P(Cl)(Cl)Cl
inactive
2) CN=C=O
inactive
3) ClCBr
inactive
4) CC(C)(C)c1ccc(OP(=O)(Oc2ccccc2)Oc2ccccc2)cc1
inactive
5) CCCCn1cc[n+](C)c1.[Cl][Fe-]([Cl])([Cl])[Cl]
inactive
6) O=[N+]([O-])c1ccccc1-c1ccccc1
inactive
7) CN
inactive
8) CCCCCON=O
inactive
9) COP(=S)(OC)Oc1nc(Cl)c(Cl)cc1Cl
inactive
10) CCN(CC)C(=O)N[C@@H]1C=C2c3cccc4[nH]cc(c34)C[C@@H]2N(C)C1
inactive
11) CSSC
inactive
12) CNC(=O)CSP(=O)(OC)OC
inactive
13) CC(C)N(C(=O)SC/C(Cl)=C/Cl)C(C)C
inactive
14) COc1nc(C)nc(NC(=O)NS(=O)(=O)c2ccccc2Cl)n1
inactive
15) C=CC(=C)C
inactive

* * *

# Target or system: Cytochrome P450 3A4 (Homo sapiens)
# Test description: Cytochrome P450 Family 3 Subfamily A Member 4 (CYP3A4) small molecule antagonists: luciferase reporter qHTS assay (AID 1671201); also: nearly all actives have a fitted effect of over 50% in size
# Experimental setup: P450-Glo CYP3A4 enzyme, luciferin luminescence, 1 h; series mostly up to 115 µM
Records with an inconclusive call do not appear. Calls of active or inactive are those of the source. Calls follow the shape of the dose curve; as a rule, active = well fitted inhibition curve with a large enough effect in the repeat runs; inconclusive = weak or mixed curves; inactive = no such curve, though single readings can be large or run the other way.
Labels: t for active, f for inactive

1) CC1CCCC1
t
2) CC(Cc1ccccc1)N(C)Cc1ccco1 (configuration not stated)
f
3) CCC[CH2][Sn]([CH2]CCC)([CH2]CCC)[CH2]CCC
f
4) COP(=O)(OC)Oc1ccc([N+](=O)[O-])cc1
f
5) Cc1ccc([N+](=O)[O-])[c]2c1[O][Hg]2
t
6) Cc1ccc2cc3c(ccc4ccccc43)c3c2c1CC3
t
7) CCCN
f

* * *

# Target or system: Estrogen receptor (Homo sapiens)
# Test description: qHTS assay to identify small molecule antagonists of the estrogen receptor alpha (ER-alpha) signaling pathway using the BG1 cell line in the presence of 0.1 nM 17-beta-estradiol (AID 1259244); also: nearly all actives have a fitted effect of over 50% in size
# Experimental setup: VM7Luc4E2 (BG1) ERE-luciferase, antagonist mode, 0.1 nM E2, 22 h; series mostly up to 92.4 µM
Results filed as inconclusive are left out. Calls of active or inactive are those of the source. Calls come from the whole dose curve; as a rule, active = well fitted inhibition curve with a large enough effect in the repeat runs; inconclusive = weak or mixed curves; inactive = no such curve, though single readings can be large or run the other way.
Labels: 1 = active, -1 = inactive

1. O=C1C(Cl)=C(Cl)C(=O)C(Cl)=C1Cl
-1
2. CC(C)NCC(O)c1ccccc1Cl (stereo not given)
-1
3. CCC(C)c1cccc(C(C)CC)c1O (stereo not given)
-1
4. CCN(CC)C(=S)S
1
5. CC[C@H](C)[C@H]1O[C@]2(C=C[C@@H]1C)C[C@@H]1C[C@@H](C/C=C(\C)[C@@H](O[C@H]3C[C@H](OC)[C@@H](O[C@H]4C[C@H](OC)[C@@H](NC)[C@H](C)O4)[C@H](C)O3)[C@@H](C)/C=C/C=C3\CO[C@@H]4[C@H](O)C(C)=C[C@@H](C(=O)O1)[C@]34O)O2
1
6. C=CC(=C)C
-1
7. COc1nc(C)nc(NC(=O)NS(=O)(=O)c2ccccc2Cl)n1
-1
8. N#Cc1ccc(N(CC(N)=O)CC(F)(F)F)cc1C(F)(F)F
-1
9. N#Cc1c2ccccc2cc2ccccc12
-1
10. Cc1ccccc1OP(=O)(Oc1ccccc1C)Oc1ccccc1C
-1
11. ClC1=C(Cl)[C@]2(Cl)[C@H]3[C@H]([C@@H]4C=C[C@H]3C4)[C@@]1(Cl)C2(Cl)Cl
-1
12. CC(C)(C)c1ccc(OP(=O)(Oc2ccccc2)Oc2ccccc2)cc1
-1
13. Cc1cc(C2CC2)nc(Nc2ccccc2)n1
-1
14. CCC1(CC)C(=O)N=C(O)NC1=O
-1
15. CC(C)Br
-1
16. CC(Cc1ccc(OCC(=O)O)cc1)NCC(O)c1csc(C(F)(F)F)n1 (stereo not given)
-1
17. S=C=NCCc1ccccc1
-1
18. BrCC(Br)(Br)Br
-1
19. CCNc1nc(NC(C)C(C)C)nc(SC)n1 (stereo not given)
-1
20. CCN(CC)CCc1c[nH]c2ccccc12
-1
21. CC1=C2C[C@H]3[C@@H](CC=C4C[C@@H](O)CC[C@@]43C)[C@@H]2CC[C@]12O[C@@H]1C[C@H](C)CN[C@H]1[C@H]2C
-1
22. CO/N=C(/C1=NOCCO1)c1ccccc1Oc1ncnc(Oc2ccccc2Cl)c1F
1
23. C=CCOC(=O)c1ccccc1N
-1
24. c1ccc(N=NNc2ccccc2)cc1
-1
25. Cc1ccc2cc3c(ccc4ccccc43)c3c2c1CC3
1
26. O=S1OCC2C(CO1)C1(Cl)C(Cl)=C(Cl)C2(Cl)C1(Cl)Cl (stereo not given)
-1
27. O=S1(=O)OCC2C(CO1)C1(Cl)C(Cl)=C(Cl)C2(Cl)C1(Cl)Cl (stereo not given)
1
28. O=[N+]([O-])c1ccc(CCl)cc1
-1
29. CCCCc1ccccc1
-1
30. [Cl][Hg][c]1ccccc1
1
31. S=C=Nc1ccccc1
-1
32. Oc1ccc([C@H]2CNCc3c2ccc(O)c3O)cc1O
-1
33. COC(=O)C(C)N(C(=O)c1ccco1)c1c(C)cccc1C (stereo not given)
-1
34. CCN(CC)CCN1C(=O)CN=C(c2ccccc2F)c2cc(Cl)ccc21
-1
35. O=S(=O)(O)F
-1
36. Clc1ccc(C2(Cn3cncn3)OCCO2)c(Cl)c1
-1
37. CNC(=O)/C=C(\C)OP(=O)(OC)OC
-1
38. N#Cc1c[nH]cc1-c1cccc2c1OC(F)(F)O2
1
39. Oc1cccc(Cl)c1Cl
-1
40. CCCCC(CC)COC(=O)c1ccccc1C(=O)OCC(CC)CCCC (stereo not given)
-1
41. CC#C[C@]1(O)CC[C@H]2[C@@H]3C[C@H](C)C4=CC(=O)CC[C@]4(C)[C@H]3CC[C@@]21C
-1
42. CC(C)c1c(CN(C)C(C)Cc2ccccc2)n(C)n(-c2ccccc2)c1=O (stereo not given)
-1
43. CCOC(=O)CCN(SN(C)C(=O)Oc1cccc2c1OC(C)(C)C2)C(C)C
-1
44. O=c1c2ccccc2c(=O)c2c1cc(Cl)c1[nH]c3c([nH]c12)c(Cl)cc1c(=O)c2ccccc2c(=O)c13
-1
45. CCOC(=O)Cc1ccccc1
-1
46. ClC1=C(Cl)[C@]2(Cl)[C@@H]3[C@H]4C[C@H]([C@@H]5O[C@H]45)[C@@H]3[C@@]1(Cl)C2(Cl)Cl
-1
47. CCCCCCC[CH2][Sn]([Cl])([Cl])[CH2]CCCCCCC
-1
48. ClSC(Cl)(Cl)Cl
-1
49. CCCCCCCc1ccc(O)cc1
-1
50. Cc1c([N+](=O)[O-])c(C)c([N+](=O)[O-])c(C(C)(C)C)c1[N+](=O)[O-]
-1

* * *

# Target or system: Nuclear receptor subfamily 1 group I member 3 (Homo sapiens)
# Test description: qHTS assay to identify small molecule agonists of the constitutive androstane receptor (CAR) signaling pathway (AID 1224839); also: nearly all actives have a fitted effect of over 15% in size;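 as to activation: HepG2 cells stably carrying human CAR and a CYP2B6 luciferase reporter; % is scaled to controls: 0 for no effect and ±100 for the full control effect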
# Experimental setup: HepG2 hCAR CYP2B6-luciferase, agonist mode, 24 h; series mostly up to 92.4 µM
# Text: National Center for Advancing Translational Sciences [NCATS] NIH Chemical Genomics Center [NCGC] U.S. Environmental Protection Agency [EPA] National Institutes of Environmental Health Sciences [NIEHS] National Toxicology Program [NTP] […] Assay Protocol Summary: A double-stable (hCAR and CYP2B6-2.2kb) transfected cell line, derived from human hepatoma (HepG2) cells, was utilized for the duration of the quantitative high-throughput screens. […]
Results filed as inconclusive are left out. Activity calls are given as the source filed them. Calls follow the shape of the dose curve; as a rule, active = well fitted activation curve with a large enough effect in the repeat runs; inconclusive = weak or mixed curves; inactive = no such curve, though single readings can be large or run the other way.
Labels: active, inactive

1. O=C(N[C@H]1N=C(c2ccccc2F)c2cccc3c2N(CC3)C1=O)c1cc2ccccc2[nH]1
inactive
2. CN1C(=O)[C@@H](NC(=O)c2cc3ccccc3[nH]2)N=C(c2ccccc2)c2ccccc21
inactive
3. COC(=O)N(OC)c1ccccc1COc1ccn(-c2ccc(Cl)cc2)n1
active
4. BrCC(Br)(Br)Br
inactive
5. NC1CCC(CC2CCC(N)CC2)CC1 (configuration not stated)
inactive
6. CC(=O)[O][Sn]([c]1ccccc1)([c]1ccccc1)[c]1ccccc1
inactive
7. CCCCON=O
inactive
8. COC(=O)C(C)N(C(=O)c1ccco1)c1c(C)cccc1C (configuration not stated)
active
9. CCc1cccc(C)c1N(C(=O)CCl)[C@@H](C)COC
active
10. CC(=O)C(Cl)C(=O)N(C)C (configuration not stated)
inactive
11. CC(C)[C@@H](Nc1ccc(C(F)(F)F)cc1Cl)C(=O)OC(C#N)c1cccc(Oc2ccccc2)c1 (some centres not stated)
inactive
12. COC(=O)/C=C(\C)OP(=O)(OC)OC
inactive
